Target: T1, Mutant 1 of human SPNS2 (FLAG tag inserted in extracellular loop 1) (human, UniProt Q8IVW8 1-549)
T1 construct: on HEK293 cells; also called extracellular loop 1 mutant
T1 sequence: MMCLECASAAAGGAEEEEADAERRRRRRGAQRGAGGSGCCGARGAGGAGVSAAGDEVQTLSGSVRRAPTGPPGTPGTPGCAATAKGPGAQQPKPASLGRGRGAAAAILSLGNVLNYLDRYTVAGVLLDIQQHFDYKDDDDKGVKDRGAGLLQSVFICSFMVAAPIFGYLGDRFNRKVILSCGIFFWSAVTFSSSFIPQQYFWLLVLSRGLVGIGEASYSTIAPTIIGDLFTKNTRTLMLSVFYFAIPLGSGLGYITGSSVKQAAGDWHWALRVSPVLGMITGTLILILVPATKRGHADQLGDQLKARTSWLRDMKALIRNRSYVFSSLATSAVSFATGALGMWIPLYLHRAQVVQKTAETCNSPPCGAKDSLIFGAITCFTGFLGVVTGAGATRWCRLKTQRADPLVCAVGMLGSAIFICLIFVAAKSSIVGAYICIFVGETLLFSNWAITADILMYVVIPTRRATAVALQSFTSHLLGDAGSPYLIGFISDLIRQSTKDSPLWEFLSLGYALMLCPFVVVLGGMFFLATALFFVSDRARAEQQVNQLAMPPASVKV
Method Summary: flow cytometry, FLAG-insertion mutant
Readout Kind: FITC+/Alexa 647+ cell rate ratio

>  <Binder>
49-0703G (antibody, IgG2b, V domains shown) VH: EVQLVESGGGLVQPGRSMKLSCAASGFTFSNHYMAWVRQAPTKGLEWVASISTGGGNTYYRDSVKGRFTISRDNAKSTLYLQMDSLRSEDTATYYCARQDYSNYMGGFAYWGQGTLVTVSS VL: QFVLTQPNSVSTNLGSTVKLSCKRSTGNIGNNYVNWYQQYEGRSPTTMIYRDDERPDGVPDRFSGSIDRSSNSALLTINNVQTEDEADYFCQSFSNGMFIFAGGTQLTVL

>  <FITC+/Alexa 647+ cell rate ratio>
< 0.1 ratio

$$$$
>  <Binder>
84-1111F (antibody, IgG2b, V domains shown) VH: EVQVVESGGGLVQPGRSMKLSCAALGFTFRDYYMAWVRQTPTKGLEWVAAISTGGGNTYYRDSVKGRFTISRDNAKSTLYLKMDSLRSDDTATYYCARNPYGNYFDYWGQGVMVTVSS VL: QFVLSQPNSVSTNLGSTVKLSCKRSTGNIGSNYVHWYQRHEGRSPTTMIYRDDKRPNGVPDRFSGSIDRSSNSALLTINNVQTEDEADYFCQSYSGGMYLFGGGTTLTVL

>  <FITC+/Alexa 647+ cell rate ratio>
< 0.1 ratio

$$$$

Input: Note FITC+/Alexa 647+ cell rate ratio for the binder shown: 18-0211B (antibody, IgG2b, V domains shown) VH: AVQLVGSGGGLVQPGRSMKLSCEASGFTFSNHYMAWVRQAPTRGLEWVATISTGGGNTYYRDSVKGRFTISRDNTRSTLSLQMDSLRSEDTATYYCTRQDYTNYMGGFAYWGQGTLVTVSS VL: QFVLTQPNSVSTNLGSTVKLSCTRSIGNIGNNYVNWYKQYEGRSPTTLIYRDDERPDGVPDRFSGSIDRSSNSALLTINSVQTEDGADYFCQSFSSGIFIFGGGTTLTVL
Output: < 0.1 ratio
